- System: SREBP
- METHOD: Reporter Screening Assay (SRE-luciferase reporter, HepG2)
- Assay type: cell-based
- CONDITIONS: Homo sapiens; SRE-luciferase reporter HepG2 cells, 24 hours, 0.01 uM to 10 uM; read-out: I: Reporter Screening Assay (Ave EC50 (nM))
MEASUREMENT_LABEL: EC50

State its EC50: CC(C)(C)c1cc(-c2csc(-c3ccc(S(=O)(=O)CC4CCCC4)cc3)c2)ccn1
> 500 nM

State its EC50: CN(c1ccc(-c2cc(-c3ccnc(C4CC4)c3)cs2)c(Cl)c1)S(C)(=O)=O
< 249 nM

State its EC50: CC(C)(O)c1cc(-c2csc(-c3ccc(NC(=O)OC4CC4)cc3Cl)c2)ccn1
> 500 nM

State its EC50: CC(C)(O)Cc1cc(-c2cc(-c3ccc(NS(C)(=O)=O)cc3Cl)sc2F)ccn1
> 500 nM

State its EC50: CC(C)(C)c1cc(-c2csc(-c3ccc(NC(=O)NC4CCC(O)CC4)cc3Cl)c2)ccn1 (centres unmarked)
> 500 nM

State its EC50: CC(C)(CO)c1cc(-c2csc(-c3ccc(N4CCOC4=O)cc3Cl)c2)ccn1
250 to 500 nM

State its EC50: CC(C)(C)c1cc(-c2csc(-c3ccc(S(C)(=O)=O)cc3)c2)ccn1
> 500 nM

State its EC50: CN(c1ccc(-c2cc(-c3ccnc(C4(CO)CC4)c3)cs2)c(Cl)c1)S(C)(=O)=O
< 249 nM
